Conditions: in acetonitrile, 318.15 K
Measurement Label: solubility (mole fraction)
Lab note: jot down the number only; don't add units.

Lab note: "N#CCc1ccccc1[N+](=O)[O-]" gave solubility (mole fraction) of 0.31

----------
Conditions: in 2-butanone, 298.15 K
Measurement Label: solubility (mole fraction)
Give your answer as a number; write no unit.

solubility (mole fraction) measured on "N#CCc1ccccc1[N+](=O)[O-]" = 0.197

----------
Details: in acetic acid, 323.15 K
Measurement Label: solubility (mole fraction)
Number only, please.

For "N#CCc1ccccc1[N+](=O)[O-]" the compound record lists solubility (mole fraction) as 0.158

----------
Conditions: in ethyl acetate, 333.15 K
Measurement Label: solubility (mole fraction)

solubility (mole fraction) recorded for this molecule, "N#CCc1ccccc1[N+](=O)[O-]" , is 0.466
